# Target or test system: human V1a receptor (Homo sapiens, UniProt P37288)
# Sequence (P37288 whole entry): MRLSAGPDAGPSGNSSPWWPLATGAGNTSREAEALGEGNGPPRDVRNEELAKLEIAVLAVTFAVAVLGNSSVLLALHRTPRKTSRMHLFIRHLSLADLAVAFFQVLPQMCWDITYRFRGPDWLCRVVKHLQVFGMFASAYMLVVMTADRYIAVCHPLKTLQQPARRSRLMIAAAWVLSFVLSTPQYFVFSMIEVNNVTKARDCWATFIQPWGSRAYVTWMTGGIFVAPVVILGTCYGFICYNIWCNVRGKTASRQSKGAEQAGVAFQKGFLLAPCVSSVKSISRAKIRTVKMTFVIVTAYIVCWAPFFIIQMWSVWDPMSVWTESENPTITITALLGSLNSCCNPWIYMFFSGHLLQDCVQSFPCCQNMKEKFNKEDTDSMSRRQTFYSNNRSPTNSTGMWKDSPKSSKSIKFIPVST
# Experiment summary: Cellular in vitro assay for determining vasopressin receptor activity, V1a receptor cell line (photoprotein luminescence)
# Type: cell-based
# Experimental conditions: selectivity ratio of the cellular IC50 values
In this section, each of the molecules is paired with its reported ratio IC50 hV2/hV1a.
Answer with a number only.

Completed entries (count: 2):
Challenge: So what does the record say about ratio IC50 hV2/hV1a for CC(C)(C)OC(=O)N1CCC(O)(CNc2nc(Cn3nc(-c4ccc(Cl)cc4)n(C[C@H](O)C(F)(F)F)c3=O)nn2-c2ccccc2Cl)CC1 ?
Response given: 17.8

Challenge: So what does the record say about ratio IC50 hV2/hV1a for O=c1n(Cc2nc(N3CC4(C3)CS(=O)(=O)C4)n(-c3ccccc3Cl)n2)nc(-c2ccc(Cl)cc2)n1C[C@H](O)C(F)(F)F ?
Response given: 5.8

Continuing:
Challenge: So what does the record say about ratio IC50 hV2/hV1a for O=C1CCCN1CCNc1nc(Cn2nc(-c3ccc(Cl)cc3)n(C[C@H](O)C(F)(F)F)c2=O)nn1-c1ccccc1Cl ?
Response given: 5.3

====

# Target or test system: human V1a receptor (Homo sapiens)
# Experiment summary: Cellular in vitro assay for determining vasopressin receptor activity, V1a receptor cell line (photoprotein luminescence)
# Experimental conditions: CHO cell line transfected with the human V1a receptor; agonist [Arg8]-vasopressin at EC50 concentration; read-out: IC50 hV1a
# Description: B-1. Cellular In Vitro Assay for Determining Vasopressin Receptor Activity The identification of agonists and antagonists of the V1a and V2 vasopressin receptors from humans, rats and dogs as well as the quantification of the activity of the compounds of the invention is carried out using recombinant cell lines. […] The bioluminescence of the cell lines is detected using a suitable luminometer [Milligan G, Marshall F, Rees S, Trends in Pharmacological Sciences 17, 235-237 (1996)]. […]
API: label(entry) gives True if the entry's IC50 is strictly smaller than 1 nM; on equality or larger values it gives False.

Some solved cases for reference:
Challenge: For this compound, is IC50 lower than 1 nM? O=C1NCCC1Nc1nc(Cn2nc(-c3ccc(Cl)cc3)n(C[C@H](O)C(F)(F)F)c2=O)nn1-c1ccccc1Cl (mixture of isomers) [Example 16]
Response given: True

Challenge: For this compound, is IC50 lower than 1 nM? O=c1n(Cc2nc(NCCO)n(-c3ccccc3Cl)n2)nc(-c2ccc(Cl)cc2)n1C[C@H](O)C(F)(F)F [Example 80]
Response given: True

Challenge: For this compound, is IC50 lower than 1 nM? CC(C)(N)CNc1nc(Cn2nc(-c3ccc(Cl)cc3)n(C[C@H](O)C(F)(F)F)c2=O)nn1-c1ccccn1 [Example 93]
Response given: False

Challenge: For this compound, is IC50 lower than 1 nM? O=c1n(Cc2nc(N3CCC(O)(C(F)(F)F)CC3)n(-c3ccccc3Cl)n2)nc(-c2ccc(Cl)cc2)n1C[C@H](O)C(F)(F)F [Example 28]
Response given: True

Challenge: For this compound, is IC50 lower than 1 nM? O=c1n(Cc2nc(N3CCC(F)(F)CC3)n(-c3ccccc3Cl)n2)nc(-c2ccc(Cl)cc2)n1C[C@H](O)C(F)(F)F [Example 34]
Response given: True

Continuing:
Challenge: For this compound, is IC50 lower than 1 nM? CNc1nc(Cn2nc(-c3ccc(Cl)cc3)n(C[C@H](O)C(F)(F)F)c2=O)nn1-c1cccc(Cl)c1 [Example 118]
Response given: False

Challenge: For this compound, is IC50 lower than 1 nM? O=c1n(Cc2nc(N3CCNC(C(F)(F)F)C3)n(CCC(F)(F)F)n2)nc(-c2ccc(Cl)cc2)n1C[C@H](O)C(F)(F)F (single isomer, unassigned) [Example 107]
Response given: False

Challenge: For this compound, is IC50 lower than 1 nM? NC(=O)[C@@H]1CCCN1c1nc(Cn2nc(-c3ccc(Cl)cc3)n(C[C@H](O)C(F)(F)F)c2=O)nn1-c1ccccc1Cl [Example 58]
Response given: False

Challenge: For this compound, is IC50 lower than 1 nM? O=c1n(Cc2nc(N3CCC4OCCC43)n(-c3ccccc3Cl)n2)nc(-c2ccc(Cl)cc2)n1C[C@H](O)C(F)(F)F (stereo partly shown) [Example 38]
Response given: True

Challenge: For this compound, is IC50 lower than 1 nM? CC1(C)CN(c2nc(Cn3nc(-c4ccc(Cl)cc4)n(C[C@H](O)C(F)(F)F)c3=O)nn2-c2ccccc2Cl)CCO1 [Example 39]
Response given: True

Challenge: For this compound, is IC50 lower than 1 nM? O=C1CCCN1CCNc1nc(Cn2nc(-c3ccc(Cl)cc3)n(C[C@H](O)C(F)(F)F)c2=O)nn1-c1ccccc1Cl [Example 45]
Response given: False

Challenge: For this compound, is IC50 lower than 1 nM? O=c1n(Cc2nc(N3CCNCC3)n(-c3ccccc3Cl)n2)nc(-c2ccc(Cl)cc2)n1C[C@H](O)C(F)(F)F [Example 72]
Response given: True

====

In this section, each of the compounds is paired with its reported ratio IC50 hV2/hV1a.
# Target or test system: UniProtKB P37288
# Experiment summary: Cellular in vitro assay for determining vasopressin receptor activity, V1a receptor cell line (photoprotein luminescence)
# Type: cell-based
# Experimental conditions: selectivity ratio of the cellular IC50 values

Completed entries (count: 10):
Challenge: So what does the record say about ratio IC50 hV2/hV1a for CC(C)(N)CNc1nc(Cn2nc(-c3ccc(Cl)cc3)n(C[C@H](O)C(F)(F)F)c2=O)nn1CCC(F)(F)F [Example 111] ?
Response given: 148.7

Challenge: So what does the record say about ratio IC50 hV2/hV1a for O=C1CC(Nc2nc(Cn3nc(-c4ccc(Cl)cc4)n(C[C@H](O)C(F)(F)F)c3=O)nn2-c2ccccc2Cl)CN1 (mixture of isomers) [Example 69] ?
Response given: 4.2

Challenge: So what does the record say about ratio IC50 hV2/hV1a for O=c1n(Cc2nc(N3CCC4OCCC43)n(-c3ccccc3Cl)n2)nc(-c2ccc(Cl)cc2)n1C[C@H](O)C(F)(F)F (stereo partly shown) [Example 38] ?
Response given: 8.9

Challenge: So what does the record say about ratio IC50 hV2/hV1a for O=C1NCCN1CCNc1nc(Cn2nc(-c3ccc(Cl)cc3)n(C[C@H](O)C(F)(F)F)c2=O)nn1-c1ccccc1Cl [Example 46] ?
Response given: 8.5

Challenge: So what does the record say about ratio IC50 hV2/hV1a for O=c1n(Cc2nc(N3CCC(O)(C(F)(F)F)C3)n(-c3ccccc3Cl)n2)nc(-c2ccc(Cl)cc2)n1C[C@H](O)C(F)(F)F (mixture of isomers) [Example 13] ?
Response given: 6.5

Challenge: So what does the record say about ratio IC50 hV2/hV1a for CC(C)(N)CNc1nc(Cn2nc(-c3ccc(Cl)cc3)n(C[C@H](O)C(F)(F)F)c2=O)nn1-c1ccccc1 [Example 94] ?
Response given: 22.2

Challenge: So what does the record say about ratio IC50 hV2/hV1a for CNc1nc(Cn2nc(-c3ccc(Cl)cc3)n(C[C@H](O)C(F)(F)F)c2=O)nn1-c1cccc(Cl)c1 [Example 118] ?
Response given: 0.1

Challenge: So what does the record say about ratio IC50 hV2/hV1a for O=c1n(Cc2nc(N3CCNC(C(F)(F)F)C3)n(CCC(F)(F)F)n2)nc(-c2ccc(Cl)cc2)n1C[C@H](O)C(F)(F)F (mixture of isomers) [Example 106] ?
Response given: 11.7

Challenge: So what does the record say about ratio IC50 hV2/hV1a for O=c1n(Cc2nc(N3CCOC(C(F)(F)F)C3)n(-c3ccccc3Cl)n2)nc(-c2ccc(Cl)cc2)n1C[C@H](O)C(F)(F)F (mixture of isomers) [Example 77] ?
Response given: 26.0

Challenge: So what does the record say about ratio IC50 hV2/hV1a for C[C@@H](O)CNc1nc(Cn2nc(-c3ccc(Cl)cc3)n(C[C@H](O)C(F)(F)F)c2=O)nn1-c1ccccc1Cl [Example 49] ?
Response given: 3.1

Continuing:
Challenge: So what does the record say about ratio IC50 hV2/hV1a for O=C1CN(c2nc(Cn3nc(-c4ccc(Cl)cc4)n(C[C@H](O)C(F)(F)F)c3=O)nn2-c2ccccc2F)CCN1 [Example 89] ?
Response given: 14.8

Challenge: So what does the record say about ratio IC50 hV2/hV1a for NC(=O)C1CN(c2nc(Cn3nc(-c4ccc(Cl)cc4)n(C[C@H](O)C(F)(F)F)c3=O)nn2-c2ccccc2Cl)C1 [Example 74] ?
Response given: 7.5

====

# Target or test system: human V1a receptor (Homo sapiens, UniProt P37288)
# Experiment summary: Cellular in vitro assay for determining vasopressin receptor activity, V1a receptor cell line (photoprotein luminescence)
# Experimental conditions: CHO cell line transfected with the human V1a receptor; agonist [Arg8]-vasopressin at EC50 concentration; read-out: IC50 hV1a
# Protocol: B-1. Cellular In Vitro Assay for Determining Vasopressin Receptor Activity The identification of agonists and antagonists of the V1a and V2 vasopressin receptors from humans, rats and dogs as well as the quantification of the activity of the compounds of the invention is carried out using recombinant cell lines. […] The bioluminescence of the cell lines is detected using a suitable luminometer [Milligan G, Marshall F, Rees S, Trends in Pharmacological Sciences 17, 235-237 (1996)]. […]
Value kind: pIC50
Convention used: pIC50 is expressed as -log10 of the molar concentration.

Completed entries (count: 5):
Challenge: So what does the record say about pIC50 for CC1(O)CCN(c2nc(Cn3nc(-c4ccc(Cl)cc4)n(C[C@H](O)C(F)(F)F)c3=O)nn2-c2ccccc2Cl)C1 (mixture of isomers) [Example 29] ?
Response given: 8.98

Challenge: So what does the record say about pIC50 for O=c1n(Cc2nc(NCC3(O)CCCNCC3)n(-c3ccccc3Cl)n2)nc(-c2ccc(Cl)cc2)n1C[C@H](O)C(F)(F)F (mixture of isomers) ?
Response given: 9.38

Challenge: So what does the record say about pIC50 for COCCN(C)c1nc(Cn2nc(-c3ccc(Cl)cc3)n(C[C@H](O)C(F)(F)F)c2=O)nn1-c1ccccc1Cl ?
Response given: 9.24

Challenge: So what does the record say about pIC50 for O=c1n(Cc2nc(N3CCCC3)n(-c3ccccc3Cl)n2)nc(-c2ccc(Cl)cc2)n1C[C@H](O)C(F)(F)F ?
Response given: 8.62

Challenge: So what does the record say about pIC50 for CC(C)(N)CNc1nc(Cn2nc(-c3ccc(Cl)cc3)n(C[C@H](O)C(F)(F)F)c2=O)nn1-c1ccccc1Cl ?
Response given: 9.46

Continuing:
Challenge: So what does the record say about pIC50 for NC(CNc1nc(Cn2nc(-c3ccc(Cl)cc3)n(C[C@H](O)C(F)(F)F)c2=O)nn1-c1ccccc1Cl)C(F)(F)F (single isomer, unassigned) [Example 7] ?
Response given: 9.66

Challenge: So what does the record say about pIC50 for NCC(O)CNc1nc(Cn2nc(-c3ccc(Cl)cc3)n(C[C@H](O)C(F)(F)F)c2=O)nn1-c1ccccc1Cl (mixture of isomers) ?
Response given: 9.03

Challenge: So what does the record say about pIC50 for CC1(O)CCN(c2nc(Cn3nc(-c4ccc(Cl)cc4)n(C[C@H](O)C(F)(F)F)c3=O)nn2-c2ccccc2Cl)C1 (single isomer, unassigned) [Example 30] ?
Response given: 9.42

Challenge: So what does the record say about pIC50 for O=C1CCC(CNc2nc(Cn3nc(-c4ccc(Cl)cc4)n(C[C@H](O)C(F)(F)F)c3=O)nn2-c2ccccc2Cl)N1 (single isomer, unassigned) [Example 64] ?
Response given: 9.10

Challenge: So what does the record say about pIC50 for NC(=O)[C@@H]1CCN(c2nc(Cn3nc(-c4ccc(Cl)cc4)n(C[C@H](O)C(F)(F)F)c3=O)nn2-c2ccccc2Cl)C1 ?
Response given: 9.14

Challenge: So what does the record say about pIC50 for O=c1n(Cc2nc(NCCO)n(-c3cccc(F)c3)n2)nc(-c2ccc(Cl)cc2)n1C[C@H](O)C(F)(F)F ?
Response given: 8.67

Challenge: So what does the record say about pIC50 for O=C1CCC(Nc2nc(Cn3nc(-c4ccc(Cl)cc4)n(C[C@H](O)C(F)(F)F)c3=O)nn2-c2ccccc2Cl)CN1 (single isomer, unassigned) [Example 61] ?
Response given: 8.87

All values here come from patent US11331314B2.
